conditions: buffer; pH 7.4; 6.0 h; 150.0 µM
The entries below are paired with their reported solubility kinetic.
Endpoint name: solubility kinetic (µg/mL)

1) CNC(=O)c1cc(Oc2ccc(NC(=O)Nc3cc(C(C)(C)C)nn3-c3ccc4ncccc4c3)c(F)c2)ccn1 = 3.5
2) COCc1cc(C)nc(SCC(=O)c2ccc(O)c(O)c2)c1C#N = 13.2
3) COc1cccc(CNCc2cccn2-c2nnc(N3CCN(c4ccccc4)CC3)s2)c1 = 5.15
4) CCOC(=O)c1ccc(-c2ccc3ncnc(NCCc4cnc[nH]4)c3c2)o1 = 26.2

----------
settings: buffer; pH 7.4; 6.0 h; 150.0 µM
The entries below are paired with their reported solubility kinetic.
Endpoint name: solubility kinetic (µg/mL)

1) CCc1cccc(NC(=O)c2cc(-c3ccc[nH]3)n[nH]2)c1 = 4.59
2) O=[S+]([O-])(Nc1nccs1)c1ccc(NCc2cc(F)cc(Cl)c2O)cc1 = 18.5
3) Cc1ccc(-c2cc(C(=O)Nc3ccc(S(=O)(=O)NCc4nccs4)cc3)c3ccccc3n2)cc1C = 1.66
4) CC(=O)N1CCc2c(sc3c2c(=O)n(-c2ccccc2)c(=O)n3CC(=O)c2ccccc2)C1 = 3.53
